# Target entity: SARS-CoV-2 membrane protein on expressing cells (SARS-CoV-2, UniProt P0DTC5 1-222)
Recorded endpoint: MFI Ratio
Form field (numeric): enter value without unit.

As a guide, the following entries are already answered.
>>> data_value("10-52 (VHH) VHH: EVQLVESGGGLVQPGGSLRLSCAASGRFFSICSMGWFRQAPGKEREFVAGINWRSGGSTYYADSVKGRFTISADNSKNTAYLQMNSLKPEDTAVYYCARGSGWWEYWGQGTLVTVSS")
4.11
>>> data_value("10-57 (VHH) VHH: EVQLVESGGGLVQPGGSLRLSCAASGRTFSRYAMGWFRQAPGKEREFVASITKFGSTNYADSVKGRFTISADNSKNTAYLQMNSLKPEDTAVYYCAKERESRFLKWRKTDWGQGTLVTVSS")
1.79
>>> data_value("10-43 (VHH) VHH: EVQLVESGGGLVQPGGSLRLSCAASGRTFRRYHMGWFRQAPGKEREFVAAITSGGRTNYADSVKGRFTISADNSKNTAYLQMNSLKPEDTAVYYCTTDGLRYFDWFPWASAFDIWGQGTLVTVSS")
1.55

Next, consider the following binder.
Exercise: Which MFI Ratio reading was recorded for the binder 9-1 (VHH) VHH: EVQLVESGGGLVQPGGSLRLSCAASGRTFSRLAMGWFRQAPGKEREFVAAISRSGRSTSYADSVKGRFTISADNSKNTAYLQMNSLKPEDTAVYYCAARRSQILFTSRTDYEWGQGTLVTVSS ?
Key: 8.19
